Where do the numbers come from? From patent US20190284262A1.

# SUBJECT OF TEST: T1, HLA-A*02:01 on T2 cells alone (no peptide added) (human)
# T1 construct: TAP-deficient T2 cells without pulsed peptide; negative control target, and the HLA molecule whose stabilisation by peptides is read in the T2 stabilization assay; also called HLA-A*02 molecule; HLA-A2 molecule
# RUN DESCRIPTION: flow cytometry, phage on T2 without peptide; secondary only 121, unstained 106
OBSERVED PROPERTY: Median:FITC-A
A bare number is all that is needed in reply.

Fill in: Median:FITC-A of EXT017-11 scFv phage clone (scFv, also called phage clone #11) scFv: NFMLTQPHSVSESPGKTVTISCTRSSGSIASNYVQWYQQRPGSAPTTVIYEDNQRPSGVPDRFSGSIDSSSNSASLTISGLKTEDEADYYCQSYDTNNYGVIFGGGTKLTVLGSRGGGGSGGGGSGGGGSLEMAQMQLVQSGAEVKKPGASVKVSCKTSGYTFNNYYMHWVRQAPGQGLEWMGIINPSGGSTNYAQKFQGRVTMTRDTSTSTVYMELSSLRSEDTAVYYCARSFDKQDIDYWGQGTLVTVSSTSGQAGQHHHHHHGAYPYDVPDYAS is ___ 143

Also check EXT017-28 scFv phage clone (scFv, full-length scFv with His+HA tags; also called EXT017-28 phage; phage clone #28) scFv: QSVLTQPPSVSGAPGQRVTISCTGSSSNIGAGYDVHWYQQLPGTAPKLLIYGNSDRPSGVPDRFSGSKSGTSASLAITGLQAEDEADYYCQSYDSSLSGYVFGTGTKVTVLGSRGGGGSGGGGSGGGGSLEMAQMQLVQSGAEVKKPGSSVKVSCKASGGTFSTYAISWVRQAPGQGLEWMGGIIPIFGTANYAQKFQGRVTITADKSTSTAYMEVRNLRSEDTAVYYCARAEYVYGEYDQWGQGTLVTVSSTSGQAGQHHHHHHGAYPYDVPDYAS 144

Follow-up item: EXT017-17 scFv phage clone (scFv, fusion to the phage coat protein not described; also called EXT017-17 phage; phage clone #17) scFv: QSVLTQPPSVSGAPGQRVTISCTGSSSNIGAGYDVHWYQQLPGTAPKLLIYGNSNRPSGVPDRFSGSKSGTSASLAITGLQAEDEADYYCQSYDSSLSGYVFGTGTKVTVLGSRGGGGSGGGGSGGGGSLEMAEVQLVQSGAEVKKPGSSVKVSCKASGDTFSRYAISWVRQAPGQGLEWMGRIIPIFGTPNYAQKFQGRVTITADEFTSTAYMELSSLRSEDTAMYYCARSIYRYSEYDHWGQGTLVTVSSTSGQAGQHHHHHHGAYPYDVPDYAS 143
